Provide the recorded GI50 for the entries that follow.
System: SK-MEL-28
PROTOCOL_TEXT: NCI tumour cell line growth inhibition, 48 h
Active and inactive are the calls of the source. Rule as the data show it: active = GI50 up to about 1.1 µM and inactive = higher. Where a SMILES comes first, the peptide text is derived from it. [ ]: non-standard residue; d: D form. The star is where a group is joined. Phe(4-NO2) = N[CH](Cc1ccc([N+](=O)[O-])cc1)C(=O)O; Cbz = O=C(OCc1ccccc1)*

stdin: Form field: reported GI50 of Cn1ncc2cc3c(Nc4ccc(Cl)cc4)cccc3nc21
stdout: 15.1 µM (inactive)

stdin: Could you share which GI50 value was measured for COc1ccc(Cc2nccc3cc(OC)c(OC)cc23)cc1 ?
stdout: > 100 µM (inactive)

stdin: So what's the measured GI50 for this one? COC(=O)c1c(C)cc(OC)c(C/C=C(\C)CCCc2coc(C=C(C)C)c2)c1OC
stdout: > 100 µM (inactive)

stdin: GI50 for CCOC(=O)c1[nH]c(-c2[nH]c(-c3[nH]c(-c4[nH]c(C(=O)OCC)c(C)c4C(=O)OCC)c(C(=O)OCC)c3C)c(C)c2C(=O)OCC)c(C(=O)OCC)c1C ?
stdout: > 100 µM (inactive)

stdin: Which GI50 is reported for this compound? CC12CCCCC1C(=O)C2(Cl)Cl (stereo not drawn)
stdout: 1.8 µM (inactive)

stdin: // lookup GI50 for C=CCOC(C)n1c(C)cc(=O)n(C(C)OCC=C)c1=O (stereo not drawn)
stdout: > 100 µM (inactive)

stdin: Param item = NC(=O)c1csc(C2OC(COP(=O)(O)CP(=O)(O)OCC3OC(n4cnc5c(N)ncnc54)C(O)C3O)C(O)C2O)n1 (stereo not drawn) ; retrieve measured GI50.
stdout: > 100 µM (inactive)

stdin: Entry under review: CS(=O)(=O)CC(=O)c1ccccc1 . Reported GI50?
stdout: > 100 µM (inactive)

stdin: If you can, please state the reported GI50 value of CN1CCc2cc3c(c4c2C1C(O)c1ccccc1-4)OCO3 (stereo not drawn) .
stdout: 20.2 µM (inactive)

stdin: # lookup: GI50 of N/C(=N\O)N/N=C/c1ccc2c(c1)OCO2
stdout: 46 µM (inactive)

stdin: Entry CN(C)CCCN1CCC2(CCC(C(C)(C)C)CC2)CC1 has what GI50?
stdout: 1.77 µM (inactive)

stdin: Quick check: GI50 of CCCCCN(CCCCC)C(=O)[C@@H](CCC(=O)O)NC(=O)c1cc2ccccc2[nH]1 ?
stdout: 21.4 µM (inactive)

stdin: So what's the measured GI50 for this one? O=[N+]([O-])c1ccc(-n2nc3ccc4c(no[n+]4[O-])c3n2)cc1
stdout: > 100 µM (inactive)

stdin: Data request, read-out GI50, for O=C1OC2C=CCC1C2 (stereo not drawn)
stdout: > 100 µM (inactive)

stdin: I am curious: what GI50 value has been reported for CC1=NN(C(=O)CC(=O)Nc2ccccc2C)C(=O)C1/N=N\c1ccc(S(=O)(=O)c2ccc(/N=N/C3C(=O)N(C(=O)CC(=O)Nc4ccccc4C)N=C3C)cc2)cc1 (stereo not drawn) ?
stdout: > 100 µM (inactive)

stdin: Reported GI50, compound c1ccc2c(c1)-c1nc3ccccc3cc1C2N1CCOCC1 (stereo not drawn) : ____
stdout: > 100 µM (inactive)

stdin: Name the recorded GI50 for C=C(C)[C@@]1(O)CCCC[C@@H]1CC(Sc1ccccc1)Sc1ccccc1 .
stdout: 18.1 µM (inactive)

stdin: Looking for the measured GI50 of C#CC(C)(C)OC(=O)C(=[N+]=[N-])C(C)=O , can you help?
stdout: > 10 µM (inactive)

stdin: For Cc1ccc(NC(=S)NNC(=O)c2cc(-c3ccccc3)nc3ccccc23)cc1C , what is its reported GI50?
stdout: 25.8 µM (inactive)

stdin: I would be grateful if you could share the reported GI50 for [O-][Cl+3]([O-])([O-])[O-].c1ccc(-c2csc3c4ccccc4c4ccccc4[n+]23)cc1 .
stdout: 2.7 µM (inactive)

stdin: Item under review: CCC(=O)N/S(=N/S(=O)(=O)c1ccccc1)C(Cl)(Cl)Cl (stereo not drawn) . Reported GI50?
stdout: > 100 µM (inactive)

stdin: Please report the recorded GI50 for O=c1n(N=[S+]([O-])(c2ccccc2)c2ccccc2)c(=O)n2n1C1C=CC2CC1 .
stdout: > 100 µM (inactive)

stdin: Reported GI50, compound COc1cc([C@@H]2c3cc4c(cc3[C@@H](Nc3ccc(NC(=O)c5cc([N+](=O)[O-])cn5C)cc3)[C@H]3COC(=O)[C@H]23)OCO4)cc(OC)c1O : ____
stdout: 1.22 µM (inactive)

stdin: Give the measured GI50 of O=C(CC1(O)C(=O)Nc2c(Cl)ccc(Cl)c21)c1ccc2ccccc2c1 (stereo not drawn) .
stdout: 14.8 µM (inactive)

stdin: Quick one: GI50 of CCOC(=O)c1cc2cc(Cc3ccc4[nH]c(C(=O)OCC)cc4c3)ccc2[nH]1 ?
stdout: 29.4 µM (inactive)

stdin: # get_value(readout='GI50', item= COc1cc(OC)c(OC)cc1/C=C/c1nc2ccccc2s1 )
stdout: > 100 µM (inactive)

stdin: GI50 for O=C1CC(=O)NC(NN2C(=O)CSC2C(=O)c2ccco2)=N1 (stereo not drawn) ?
stdout: > 100 µM (inactive)

stdin: Looking for the measured GI50 of CCN(CC)CCC/N=c1\c2cc(OC)ccc2[nH]c2c([N+](=O)[O-])ccc(NCCCN(CC)CC)c12 , can you help?
stdout: > 10 µM (inactive)

stdin: Fill blank: measured GI50 of the compound CCN(CC)C(=O)c1cc(OC(C)C)ccc1-c1c(C)cc(OC(C)C)c(OC)c1OC is ____.
stdout: > 100 µM (inactive)

stdin: What GI50 value was documented for this compound, COc1ccc(-c2c3c(n(C4OC(CO)C(O)C(O)C4O)c(=S)c2C#N)CCC3)cc1 (stereo not drawn) ?
stdout: 35.1 µM (inactive)

stdin: What does the data say about its GI50? Entry: C=CCNC(=O)N(CCC)CCCCC(NC(C)=O)C(=O)NCc1ccccc1 (stereo not drawn)
stdout: > 100 µM (inactive)

stdin: Which GI50 value is on record for CCOC(=O)CCC(NC(=O)OCc1ccccc1)C(=O)NC(CCC(=O)OCC)C(=O)NC(Cc1ccc([N+](=O)[O-])cc1)C(=O)NC(CCC(=O)OCC)C(=O)NC(CCC(=O)OCC)C(=O)OCC (stereo not drawn) (Cbz-E(OEt)E(OEt)[Phe(4-NO2)]E(OEt)E(OEt)-OEt; configuration not given here) ?
stdout: > 100 µM (inactive)

stdin: Fill in the blank: the reported GI50 of CCC[C@@H](O)C[C@@H]1CCC[C@H](C[C@@H](O)CC)N1C is ____.
stdout: > 100 µM (inactive)

stdin: Request the reported GI50 associated with CCOC(=O)C1=C(C)N(c2ccc(Cl)cc2)C2(O)C=CC(=O)C3C(=O)N(c4ccccc4)C(=O)C132 (stereo not drawn)
stdout: 1.51 µM (inactive)

stdin: What GI50 value was documented for this compound, CC(SC(=S)N1CCOCC1)C(=O)Nc1nnc(-c2ccc(Cl)cc2)o1 (stereo not drawn) ?
stdout: > 100 µM (inactive)

stdin: For the compound COc1ccc(Oc2nc3ccc(C(F)(F)F)cc3nc2-c2ccccc2)cc1 , what GI50 is on record?
stdout: > 100 µM (inactive)

stdin: Looking for the measured GI50 of NNC(=O)/C(=C/c1ccc(Cl)cc1Cl)NC(=O)c1ccccc1 , can you help?
stdout: > 100 µM (inactive)

stdin: I am curious: what GI50 value has been reported for Cc1ccc2c(c1)Sc1ccc(/N=N/N(C)C)cc1N2C ?
stdout: > 100 µM (inactive)
